Ref: ChEMBL document CHEMBL3608203

# target.system: Pancreatic triacylglycerol lipase (Sus scrofa)
# Sequence (P00591 whole entry): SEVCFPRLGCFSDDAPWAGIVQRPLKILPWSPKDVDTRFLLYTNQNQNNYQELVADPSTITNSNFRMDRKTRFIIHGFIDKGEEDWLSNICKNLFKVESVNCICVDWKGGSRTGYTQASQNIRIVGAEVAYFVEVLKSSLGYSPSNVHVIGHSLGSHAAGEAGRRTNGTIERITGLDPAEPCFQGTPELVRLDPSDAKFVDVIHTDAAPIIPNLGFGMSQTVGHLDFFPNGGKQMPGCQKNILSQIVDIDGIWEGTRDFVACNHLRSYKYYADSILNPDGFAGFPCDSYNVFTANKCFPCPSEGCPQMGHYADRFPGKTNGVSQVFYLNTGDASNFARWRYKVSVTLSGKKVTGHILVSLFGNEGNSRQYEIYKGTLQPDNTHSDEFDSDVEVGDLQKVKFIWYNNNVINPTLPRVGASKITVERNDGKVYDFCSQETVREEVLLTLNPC
# method.notes: Inhibition of porcine pancreatic lipase pre-incubated for 15 mins before p-nitrophenylbutyrate substrate addition by microplate reader based method
Assign IC50 to each entry below.

// solved cases for IC50 follow
[
  {
    "molecule": "O=c1c(O)c(-c2ccc(O)cc2)oc2cc(O)cc(O)c12",
    "test.readout": "IC50",
    "val": "> 100 µM"
  },
  {
    "molecule": "O=C1c2c(cc(O)c(O)c2O)O[C@H](c2ccc(O)cc2)[C@H]1O",
    "test.readout": "IC50",
    "val": "> 100 µM"
  },
  {
    "molecule": "CC(C)=CCc1c(O)cc(O)c2c1OC(c1ccc(O)cc1)CC2=O (stereo not drawn)",
    "test.readout": "IC50",
    "val": "76.9 µM"
  },
  {
    "molecule": "O=C1C[C@@H](c2ccc(O)cc2)Oc2cc(O)cc(O)c21",
    "test.readout": "IC50",
    "val": "> 100 µM"
  },
  {
    "molecule": "CC(C)=CCc1c(O)cc2c(c1O)C(=O)C[C@@H](c1cc3c(cc1O)OC(C)(C)C=C3)O2",
    "test.readout": "IC50",
    "val": "6.5 µM"
  }
]

Batch of 3 molecules: report IC50 for each.
1. CC(C)=CCc1c(O)cc2occ(-c3ccc(O)cc3)c(=O)c2c1O
2. O=C1c2c(O)cc(O)cc2O[C@H](c2ccc(O)cc2)[C@H]1O [DIHYDROKAEMPFEROL]
3. CC(C)(O)CCc1c(O)cc(O)c2c1O[C@@H](c1cc3c(cc1O)OC(C)(C)C=C3)CC2=O

[A]
1. > 100 µM
2. > 100 µM
3. 84.6 µM
